- Tested on: RXF 393
- assay_details: Growth inhibition of human RXF 393 cells at 10 uM incubated for 48 hrs by sulforhodamine B assay relative to control
- Format: functional
- test_conditions: read-out: GI
Listing of entries alongside the reported inhibition of growth at 10 µM.
Number only, in %; omit the unit.

Consider the following illustrative entries.
[
  {
    "compound_structure": "COc1cc2nc(-c3ccc(C(F)(F)F)cc3)cc(OCCN3CCC(O)CC3)c2cc1OC",
    "unit_annotation": "%",
    "inhibition of growth at 10 µM": 13
  },
  {
    "compound_structure": "COc1cc2nc(-c3ccc(Cl)cc3)cc(OCCCN3CCCC3)c2cc1OC",
    "unit_annotation": "%",
    "inhibition of growth at 10 µM": 62
  },
  {
    "compound_structure": "COc1cc2nc(-c3ccc(C(F)(F)F)cc3)cc(OCCN3CCCC3)c2cc1OC",
    "unit_annotation": "%",
    "inhibition of growth at 10 µM": 13
  },
  {
    "compound_structure": "COc1cc2nc(-c3cccs3)cc(OCCCN3CCC(O)CC3)c2cc1OC",
    "unit_annotation": "%",
    "inhibition of growth at 10 µM": 20
  }
]

As a next step, examine the compound that follows.
# lookup: inhibition of growth at 10 µM of `COc1cc2nc(-c3ccco3)cc(OCCCN3CCC(O)CC3)c2cc1OC`
46

----------
- Tested on: UO-31
- assay_details: Growth inhibition of human UO-31 cells incubated for 48 hrs by sulforhodamine B assay
- Assay type: functional
In plain terms, low GI50, meaning strictly below 2 µM, gives Yes, and everything else gives No.

Use these answered entries as a reference point.
[
  {
    "compound_structure": "COc1cc2nc(-c3ccc(Cl)cc3)cc(OCCCN3CCCCC3)c2cc1OC",
    "class_label": "Yes"
  },
  {
    "compound_structure": "COc1cc2nc(-c3ccc(C(F)(F)F)cc3)cc(OCCCN3CCC(O)CC3)c2cc1OC",
    "class_label": "No"
  },
  {
    "compound_structure": "COc1cc2nc(-c3ccc(C(F)(F)F)cc3)cc(OCCCN3CCOCC3)c2cc1OC",
    "class_label": "Yes"
  }
]

For the next question, use this molecule.
Dear reviewer, please state whether `COc1cc2nc(-c3ccc(Cl)cc3)cc(OCCCN3CCC(O)CC3)c2cc1OC` has GI50 strictly beneath 2 µM.
Yes

----------
- Test system: SW-620
- assay_details: Growth inhibition of human SW-620 cells incubated for 48 hrs by sulforhodamine B assay
- Assay type: functional
endpoint_label: GI50

Consider the following illustrative entries.
[
  {
    "compound_structure": "COc1cc2nc(-c3ccc(C(F)(F)F)cc3)cc(OCCCN3CCOCC3)c2cc1OC",
    "tgt": "SW-620",
    "GI50": "3.51 µM"
  },
  {
    "compound_structure": "COc1cc2nc(-c3ccc(Cl)cc3)cc(OCCCN3CCOCC3)c2cc1OC",
    "tgt": "SW-620",
    "GI50": "3.57 µM"
  },
  {
    "compound_structure": "COc1cc2nc(-c3ccc(C(F)(F)F)cc3)cc(OCCCN3CCCC3)c2cc1OC",
    "tgt": "SW-620",
    "GI50": "1.62 µM"
  },
  {
    "compound_structure": "COc1cc2nc(-c3ccc(C(F)(F)F)cc3)cc(OCCCN3CCC(O)CC3)c2cc1OC",
    "tgt": "SW-620",
    "GI50": "3.53 µM"
  },
  {
    "compound_structure": "COc1cc2nc(-c3ccc(C(F)(F)F)cc3)cc(OCCCN3CCCCC3)c2cc1OC",
    "tgt": "SW-620",
    "GI50": "2.91 µM"
  },
  {
    "compound_structure": "COc1cc2nc(-c3ccc(Cl)cc3)cc(OCCCN3CCCC3)c2cc1OC",
    "tgt": "SW-620",
    "GI50": "3.12 µM"
  },
  {
    "compound_structure": "COc1cc2nc(-c3ccc(Cl)cc3)cc(OCCCN3CCC(O)CC3)c2cc1OC",
    "tgt": "SW-620",
    "GI50": "3.05 µM"
  }
]

# lookup: GI50 of `COc1cc2nc(-c3ccc(Cl)cc3)cc(OCCCN3CCCCC3)c2cc1OC`
3.09 µM

Data provenance is ChEMBL document CHEMBL4732237.
